- Procedure details: Components of the Cytosolic LPS Sensing Pathway: Gene Identification via Genome-wide siRNA Screen
- Study conditions: RAW264.7 macrophages, IL-1a HTRF, actives lie on both sides, screened at 100 nM (by protocol), cells primed 5 h with Pam3CSK4 first
The campaign covered roughly 53,000 sequences. About 3,700 (7%) were called active. The full list was thinned out, with actives kept by preference.
Returns YES if the recorded z-score is greater than or equal to 0.3, and NO otherwise.

These solved cases illustrate the format of a correct answer.
GGGCAUUCAGCAGUUACAGTT against Lrriq4	YES
GGCAUUGGAAUAAAAUUUGTT against Rfk	NO
GCAUGCAAAUCUCCUCUAATT against Sema3b	NO

Determine whether this sequence has z-score no lower than 0.3: GGAGCUAACUGUCAAUGGATT against Usp17la
YES

Does the reported z-score for CGCAGGACAUUUGGUUUUGTT against Ssxb2 fall at or above the 0.3 mark?
YES

Is it the case that GGGAAAUGGAGGAUAAUUATT against Zmat1 has z-score reaching or exceeding 0.3?
NO

z-score >= 0.3 for GGAAGAACUCAAGAGGGAATT against Plpp2 ?
NO

Does GCAGUGAUCCAUGAGCCUATT against Eif5a have a reported z-score of at least 0.3?
YES

Origin of measurements: PubChem BioAssay AID1508600
